Would you kindly list fraction unbound at 5 h for each of these molecules?
# Assay remarks: Plasma protein binding in human incubated for 5 hrs by UPLC-MS method
# Assay type: ADME, cell-free
# Recorded conditions: read-out: PPB (converted)
Reply with just the number.

Q. Sample CC1CC(=O)NN=C1c1ccc(F)c(F)c1 (racemic) — what was its fraction unbound at 5 h?
A. 0.44

Q. Which fraction unbound at 5 h is listed for CCN(CC)c1ccc(C2=NNC(=O)CC2C)cc1[N+](=O)[O-] (configuration not stated) ?
A. 0.13

Q. Can you share its fraction unbound at 5 h? I mean this molecule: CC1CC(=O)NN=C1c1ccc(N2CCOCC2)cc1 (racemic)
A. 0.53

Q. Bench note: what fraction unbound at 5 h did CC1CC(=O)NN=C1c1ccc(N2CCOCC2)c(F)c1 (racemic) show?
A. 0.43

Q. Bench note: what fraction unbound at 5 h did CCN(CC)c1ccc(C2=NNC(=O)CC2C)cc1 (racemic) show?
A. 0.1

Q. I have this molecule here, C[C@@H]1CC(=O)NN=C1c1ccc(-c2cncnc2)cc1 , and I need its recorded fraction unbound at 5 h.
A. 0.44

Q. Tell me the measured fraction unbound at 5 h of C[C@@H]1CC(=O)NN=C1c1ccc(Cl)cc1 , please.
A. 0.13

====

# Target or test system: cGMP-inhibited 3',5'-cyclic phosphodiesterase 3A (Homo sapiens)
# Sequence (Q14432 whole entry): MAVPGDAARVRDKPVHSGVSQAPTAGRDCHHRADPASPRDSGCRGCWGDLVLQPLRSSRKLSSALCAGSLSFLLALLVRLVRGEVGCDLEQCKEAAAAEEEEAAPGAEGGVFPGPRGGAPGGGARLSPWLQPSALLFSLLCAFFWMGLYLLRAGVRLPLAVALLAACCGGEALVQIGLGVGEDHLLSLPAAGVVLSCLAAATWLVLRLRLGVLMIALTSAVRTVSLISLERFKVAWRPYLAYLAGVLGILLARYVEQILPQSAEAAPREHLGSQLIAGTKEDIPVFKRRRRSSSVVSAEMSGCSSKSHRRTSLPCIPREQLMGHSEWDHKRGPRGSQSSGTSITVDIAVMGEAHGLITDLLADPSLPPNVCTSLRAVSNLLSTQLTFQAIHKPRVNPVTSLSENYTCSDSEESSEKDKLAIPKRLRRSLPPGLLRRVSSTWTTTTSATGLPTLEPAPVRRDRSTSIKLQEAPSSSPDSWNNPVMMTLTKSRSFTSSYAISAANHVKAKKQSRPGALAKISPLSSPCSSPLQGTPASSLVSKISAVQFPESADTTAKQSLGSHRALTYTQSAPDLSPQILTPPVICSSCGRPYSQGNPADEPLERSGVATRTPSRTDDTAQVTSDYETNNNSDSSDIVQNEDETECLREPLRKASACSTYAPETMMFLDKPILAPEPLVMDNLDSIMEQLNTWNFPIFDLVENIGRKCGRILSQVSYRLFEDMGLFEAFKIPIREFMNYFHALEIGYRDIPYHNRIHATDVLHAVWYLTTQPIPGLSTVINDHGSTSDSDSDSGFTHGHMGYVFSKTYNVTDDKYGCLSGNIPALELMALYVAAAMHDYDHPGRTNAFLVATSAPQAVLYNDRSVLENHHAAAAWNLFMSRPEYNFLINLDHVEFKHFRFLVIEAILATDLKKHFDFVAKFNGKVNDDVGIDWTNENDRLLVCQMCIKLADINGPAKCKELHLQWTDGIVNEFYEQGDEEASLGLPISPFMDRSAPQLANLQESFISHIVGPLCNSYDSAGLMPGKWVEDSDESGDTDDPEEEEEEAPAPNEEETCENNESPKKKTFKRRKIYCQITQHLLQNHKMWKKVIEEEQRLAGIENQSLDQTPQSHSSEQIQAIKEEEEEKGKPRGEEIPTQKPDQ
# Assay remarks: Inhibition of human N-terminal His-GST-tagged recombinant PDE3A (669-end residues) using fluorescent labelled cAMP as substrate
Endpoint name: IC50 (µM)
Give the value in µM but do not write µM after it.

Q. Look at this molecule and give its reported IC50. CC(=O)Nc1ccc(C2=NNC(=O)C[C@H]2C)cc1Cl
A. 0.008

Q. // query IC50 value for entry C[C@@H]1CC(=O)NN=C1c1ccc(Cl)c(Cl)c1
A. 0.008

Q. Return reported IC50; argument: C[C@@H]1CC(=O)NN=C1c1ccc(N2CCOCC2)c(F)c1
A. 0.01

Q. Look at this molecule and give its reported IC50. C[C@@H]1CC(=O)NN=C1c1ccc(N2CCN(C)CC2)cc1
A. 2

Q. Given CCN(CC)c1ccc(C2=NNC(=O)CC2C)cc1[N+](=O)[O-] (configuration not stated) , state its recorded IC50.
A. 0.025

Q. Entry CC1CC(=O)NN=C1c1ccc(N2CCOCC2)cc1 (racemic) : reported IC50 = ?
A. 0.12

Q. Item under review: CC(=O)Nc1ccc(C2=NNC(=O)C[C@H]2C)cc1 . Reported IC50?
A. 0.024

====

# Assay remarks: Plasma protein binding in mouse incubated for 5 hrs by UPLC-MS method
# Format: ADME, cell-free
# Recorded conditions: read-out: PPB (converted)
Endpoint name: fraction unbound at 5 h
I'd appreciate a reply containing only the number, no unit.

Q. Which measured fraction unbound at 5 h value corresponds to CCN(CC)c1ccc(C2=NNC(=O)CC2C)cc1 (racemic) ?
A. 0.1

Q. Record request: fraction unbound at 5 h value, item C[C@@H]1CC(=O)NN=C1c1ccc(Cl)cc1
A. 0.19

Q. Entry CC1CC(=O)NN=C1c1ccc(F)c(F)c1 (racemic) : reported fraction unbound at 5 h = ?
A. 0.48

Q. I would be grateful if you could share the reported fraction unbound at 5 h for CC1CC(=O)NN=C1c1ccc(N2CCOCC2)c(F)c1 (racemic) .
A. 0.45

Q. Data request, read-out fraction unbound at 5 h, for CCN(CC)c1ccc(C2=NNC(=O)CC2C)cc1[N+](=O)[O-] (configuration not stated)
A. 0.08

Q. Query (molecule): C[C@@H]1CC(=O)NN=C1c1ccc(-c2cncnc2)cc1 ; field requested: fraction unbound at 5 h
A. 0.46

Q. Returns the measured fraction unbound at 5 h for the input molecule. Input: CC1CC(=O)NN=C1c1ccc(N2CCOCC2)cc1 (racemic)
A. 0.58

====

# Target or test system: cGMP-inhibited 3',5'-cyclic phosphodiesterase 3B (Homo sapiens, UniProt Q13370)
# Sequence (Q13370 whole entry): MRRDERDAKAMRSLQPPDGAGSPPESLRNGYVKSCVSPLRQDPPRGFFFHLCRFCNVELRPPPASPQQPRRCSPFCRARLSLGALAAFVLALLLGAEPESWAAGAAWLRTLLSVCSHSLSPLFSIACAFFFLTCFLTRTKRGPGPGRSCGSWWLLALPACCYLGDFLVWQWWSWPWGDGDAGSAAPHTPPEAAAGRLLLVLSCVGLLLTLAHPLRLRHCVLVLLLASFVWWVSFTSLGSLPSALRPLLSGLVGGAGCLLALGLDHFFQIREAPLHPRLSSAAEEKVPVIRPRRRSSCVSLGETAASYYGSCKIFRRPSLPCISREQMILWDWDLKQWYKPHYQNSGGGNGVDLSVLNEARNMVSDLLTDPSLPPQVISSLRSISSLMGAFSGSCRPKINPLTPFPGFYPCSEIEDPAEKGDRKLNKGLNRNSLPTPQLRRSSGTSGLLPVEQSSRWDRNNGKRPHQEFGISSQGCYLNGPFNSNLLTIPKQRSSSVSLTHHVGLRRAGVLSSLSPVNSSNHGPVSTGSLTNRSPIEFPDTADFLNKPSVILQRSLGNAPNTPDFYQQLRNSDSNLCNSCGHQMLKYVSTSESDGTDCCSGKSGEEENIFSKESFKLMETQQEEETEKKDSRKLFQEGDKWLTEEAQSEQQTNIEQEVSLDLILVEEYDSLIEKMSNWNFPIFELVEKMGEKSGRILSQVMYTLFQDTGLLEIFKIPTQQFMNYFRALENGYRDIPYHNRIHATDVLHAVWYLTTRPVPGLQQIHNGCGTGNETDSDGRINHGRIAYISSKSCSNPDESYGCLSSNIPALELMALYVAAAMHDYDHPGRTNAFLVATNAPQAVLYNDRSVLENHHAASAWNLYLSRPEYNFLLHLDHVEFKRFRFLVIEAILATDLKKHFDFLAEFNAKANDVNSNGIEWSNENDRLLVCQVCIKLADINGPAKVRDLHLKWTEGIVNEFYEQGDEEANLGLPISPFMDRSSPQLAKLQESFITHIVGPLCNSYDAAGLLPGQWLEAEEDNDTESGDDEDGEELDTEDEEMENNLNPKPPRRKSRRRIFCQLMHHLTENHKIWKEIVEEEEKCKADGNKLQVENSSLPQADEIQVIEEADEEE
# Assay remarks: Inhibition of human recombinant PDE3B
I'd be grateful if you could share measured pIC50 for these entries.
By convention, pIC50 is the negative base-10 log of a molar concentration.

Q. Request the reported pIC50 associated with C[C@@H]1CC(=O)NN=C1c1ccc(N2CCN(C)CC2)cc1
A. 5.46

Q. Please look up its pIC50: CC(=O)Nc1ccc(C2=NNC(=O)C[C@H]2C)cc1
A. 7.80

Q. Sample C[C@@H]1CC(=O)NN=C1c1ccc(Cl)c(Cl)c1 — what was its pIC50?
A. 7.85

Q. # pIC50 lookup, item CC(=O)Nc1ccc(C2=NNC(=O)C[C@H]2C)cc1Cl
A. 8.00

Q. Requested read-out: pIC50. Entry: CCN(CC)c1ccc(C2=NNC(=O)CC2C)cc1[N+](=O)[O-] (stereo unspecified)
A. 7.00

Q. Recorded pIC50 for CC1CC(=O)NN=C1c1ccc(N2CCOCC2)cc1 (racemic) , please?
A. 6.59

====

# Assay remarks: Permeability across apical to basolateral side in human Caco-2 cells
# Type: ADME, cell-based
# Recorded conditions: read-out: permeability
Endpoint name: Papp A→B (×10⁻⁶ cm/s)
Give the value in ×10⁻⁶ cm/s but do not write ×10⁻⁶ cm/s after it.

Q. # Papp A→B lookup, item C[C@@H]1CC(=O)NN=C1c1ccc(N2CCOCC2)c(F)c1
A. 27.9

====

# Tested on: A549
# Assay remarks: Cytotoxicity against human A549 cells assessed as cell growth inhibition upto 10 uM measured after 3 days by […] reagent based assay
# Recorded conditions: time 72.0 hrs
Calls of active or inactive are those of the source. The rule behind the calls is not given here.
Endpoint name: Activity

compound_structure=C[C@@H]1CC(=O)NN=C1c1ccc(Cl)c(Cl)c1 measured_result=inactive
compound_structure=C[C@@H]1CC(=O)NN=C1c1ccc(N2CCOCC2)c(F)c1 measured_result=inactive
compound_structure=CCNc1ccc(C2=NNC(=O)C[C@H]2C)cc1[N+](=O)[O-] measured_result=inactive
compound_structure=C[C@H]1CC(=O)NN=C1c1ccc(N2CCOCC2)c(F)c1 measured_result=inactive
compound_structure=C[C@@H]1CC(=O)NN=C1c1ccc(N)cc1 measured_result=inactive

Q. Requested read-out: Activity. Entry: C/C=C/c1ccc(C2=NNC(=O)C[C@H]2C)cc1
A. inactive

====

# Assay remarks: Efflux ratio of permeability in human Caco-2 cells
# Assay type: ADME, cell-based
Endpoint name: efflux ratio

Q. Quick one: efflux ratio for C[C@@H]1CC(=O)NN=C1c1ccc(N2CCOCC2)c(F)c1 ?
A. 0.71

====

# Assay remarks: Solubility of the compound
# Type: physicochemical
Endpoint name: solubility (µM)
Output spec: scalar in µM, unitless text.

Q. Entry C[C@@H]1CC(=O)NN=C1c1ccc(N2CCOCC2)c(F)c1 has what solubility?
A. 1000

====

# Test system: SK-MEL3
# Assay remarks: Cytotoxicity against human SK-MEL3 cells assessed as cell growth inhibition upto 10 uM measured after 48 hrs by […] reagent based assay
# Type: functional
# Recorded conditions: SK-MEL3, 48 h
Endpoint name: log10(EC50) (log10 of the value in nM)
Heads up, the numbers here are log10 of EC50 in nM units.

Q. Requested field: log10(EC50). Item: CC1CC(=O)NN=C1c1ccc(N2CCOCC2)cc1 (racemic)
A. 1.04

Q. # lookup: log10(EC50) of C[C@@H]1CC(=O)NN=C1c1ccc(N2CCOCC2)c(F)c1
A. 0.11

Q. Report log10(EC50) for CC(=O)Nc1ccc(C2=NNC(=O)C[C@H]2C)cc1Cl please.
A. 1.49

Q. // query log10(EC50) value for entry C[C@@H]1CC(=O)NN=C1c1ccc(Cl)cc1
A. 1.46

Q. Can you look up the measured log10(EC50) of CCN(CC)c1ccc(C2=NNC(=O)CC2C)cc1[N+](=O)[O-] (stereo not drawn) for me?
A. 1.08

Q. GET /values?readout=log10(EC50)&item= C[C@@H]1CC(=O)NN=C1c1ccc(Cl)c(Cl)c1
A. 0.75

Q. Record request: log10(EC50) value, item CC(=O)Nc1ccc(C2=NNC(=O)C[C@H]2C)cc1[N+](=O)[O-]
A. 0.62

Q. Any idea what log10(EC50) was measured for C[C@@H]1CC(=O)NN=C1c1ccc(N2CCN(C)CC2)cc1 ?
A. 2.84

====

# Test system: HeLa
# Assay remarks: Cytotoxicity against human HeLa cells assessed as cell growth inhibition measured after 48 hrs by […] reagent based assay
# Format: functional
Endpoint name: pEC50
Reminder that pEC50 is minus the log10 of a molar concentration.

Q. Recall the recorded pEC50 for CCN(CC)c1ccc(C2=NNC(=O)C[C@H]2C)cc1[N+](=O)[O-] with HeLa and state it.
A. 8.42

Q. Lookup: pEC50 / HeLa / C[C@@H]1CC(=O)NN=C1c1ccc(C2CCCCC2)cc1
A. 8.11

Q. Missing value: pEC50, HeLa, entry C/C=C/c1ccc(C2=NNC(=O)C[C@H]2C)cc1 . Fill in?
A. 8.06

Q. Request body: readout pEC50, system HeLa, query CCN(CC)c1ccc(C2=NNC(=O)CC2C)cc1N (stereo not given) . Return the value.
A. 6.62

Q. Recall the recorded pEC50 for CCN(CC)c1ccc(C2=NNC(=O)CC2C)cc1 (racemic) with HeLa and state it.
A. 8.06

Q. What reported pEC50 corresponds to CC1CC(=O)NN=C1c1ccc(N2CCOCC2)cc1 (racemic) on HeLa?
A. 7.44

Q. Query for HeLa: what pEC50 does the record show for CC(=O)Nc1ccc(C2=NNC(=O)C[C@H]2C)cc1Br ?
A. 7.68

Q. Query the reported pEC50 for HeLa; item: C[C@@H]1CC(=O)NN=C1c1ccc(I)cc1
A. 8.15

Q. State its pEC50 on HeLa: C[C@@H]1CC(=O)NN=C1c1ccc(N2CCOCC2)c(F)c1
A. 8.80

Q. Enter reported pEC50 observed with HeLa for CCNc1ccc(C2=NNC(=O)C[C@H]2C)cc1
A. 7.15

Q. Form field - read-out: pEC50; system: HeLa; submitted item: CCNc1ccc(C2=NNC(=O)C[C@H]2C)cc1[N+](=O)[O-]
A. 8.96

Q. Record lookup: for HeLa, what pEC50 belongs to CC(=O)Nc1ccc(C2=NNC(=O)C[C@H]2C)cc1[N+](=O)[O-] ?
A. 8.31

Q. Could you share what pEC50 was measured for C[C@@H]1CC(=O)NN=C1c1ccc(F)c(F)c1 , tested on HeLa?
A. 7.66

Q. Recall the recorded pEC50 for C[C@@H]1CC(=O)NN=C1c1ccc(F)cc1 with HeLa and state it.
A. 6.39

Q. Hello, I am looking for reported pEC50 with HeLa for CC(=O)Nc1ccc(C2=NNC(=O)C[C@H]2C)cc1C(C)=O . Could you help?
A. 6.89

Q. What is its pEC50 for HeLa? Entry: C#Cc1cc(C2=NNC(=O)C[C@H]2C)ccc1NC(C)=O
A. 7.19

Q. Report pEC50 for C[C@@H]1CC(=O)NN=C1c1ccc(Cl)cc1 tested on HeLa.
A. 7.48

Q. For HeLa, provide pEC50 of C[C@@H]1CC(=O)NN=C1c1ccc(N2CCOCC2)c(Cl)c1 please.
A. 8.35
